test: qHTS assay for small molecule disruptors of the mitochondrial membrane potential (AID 720635); conditions: HepG2 mitochondrial membrane potential, Mito-MPS dye ratio; series mostly up to 83.2 µM
Records with an inconclusive call do not appear. The source made the active and inactive calls. Calls follow the shape of the dose curve; as a rule, active = well fitted inhibition curve with a large enough effect in the signal ratio in the repeat runs; inconclusive = weak or mixed curves, or effect the other way; inactive = flat fitted curve, though single readings scatter; the % refers to the signal ratio.
Answer with one of the outcomes given here: Yes = active, No = inactive

C=CCN=C=S :: No
O=C/C=C/c1ccccc1 :: No
FC(F)(F)c1ccc(Cl)cc1 :: No
Nc1cccc(Cl)c1 :: No
Cc1ccc(N=C=O)cc1N=C=O :: Yes

Q: Test call, this molecule: COc1nc(NC(C)C)nc(NC(C)C)n1
Ans: No

Q: Outcome? OC[C@@H](O)[C@H]1O[C@@H]2O[C@H](C(Cl)(Cl)Cl)O[C@@H]2[C@H]1O
Ans: No

Q: # lookup: test call for N#CN=C(N)N
Ans: No

Q: Any idea what this test logged for [N-]=[N+]=CC(=O)OC[C@H](N)C(=O)O ?
Ans: No

* * *

target: Aryl hydrocarbon receptor (Homo sapiens) (UniProt P35869); test: qHTS assay to identify small molecule that activate the aryl hydrocarbon receptor (AhR) signaling pathway (AID 743085); conditions: HepG2 AhR-luc (HG2L7.5c1), luciferase, 24 h; series mostly up to 70.3 µM;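 also: HG2L7.5c1 human HepG2 liver cells with stably integrated DRE-driven firefly reporter; % is scaled to controls: 0 for no effect and ±100 for the full control effect; nearly all actives have a fitted effect of over 15% in size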
Sequence (P35869 whole entry, looked up): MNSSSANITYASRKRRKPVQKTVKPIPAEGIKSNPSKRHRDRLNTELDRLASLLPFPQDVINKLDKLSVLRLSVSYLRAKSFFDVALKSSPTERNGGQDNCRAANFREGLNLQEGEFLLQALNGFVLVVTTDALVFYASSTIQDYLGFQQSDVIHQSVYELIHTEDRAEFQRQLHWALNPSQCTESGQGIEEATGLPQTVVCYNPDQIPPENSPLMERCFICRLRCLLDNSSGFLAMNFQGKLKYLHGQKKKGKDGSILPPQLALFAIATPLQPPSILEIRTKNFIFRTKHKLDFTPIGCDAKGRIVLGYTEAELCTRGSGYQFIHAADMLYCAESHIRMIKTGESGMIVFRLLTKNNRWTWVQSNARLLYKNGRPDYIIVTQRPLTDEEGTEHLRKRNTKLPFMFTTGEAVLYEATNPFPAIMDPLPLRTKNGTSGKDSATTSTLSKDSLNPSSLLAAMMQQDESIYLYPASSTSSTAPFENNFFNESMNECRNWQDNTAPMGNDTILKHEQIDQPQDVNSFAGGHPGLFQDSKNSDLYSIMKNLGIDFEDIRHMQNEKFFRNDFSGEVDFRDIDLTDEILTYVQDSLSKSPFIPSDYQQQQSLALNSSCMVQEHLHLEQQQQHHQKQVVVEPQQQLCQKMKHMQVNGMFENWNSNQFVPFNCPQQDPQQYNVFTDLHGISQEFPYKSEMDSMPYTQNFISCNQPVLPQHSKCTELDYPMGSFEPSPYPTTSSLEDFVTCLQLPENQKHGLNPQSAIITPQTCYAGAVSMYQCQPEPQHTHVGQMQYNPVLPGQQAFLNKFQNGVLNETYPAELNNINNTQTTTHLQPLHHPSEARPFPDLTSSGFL
Inconclusive results are not listed. The source made the active and inactive calls. Calls follow the shape of the dose curve; as a rule, active = well fitted activation curve with a large enough effect in the repeat runs; inconclusive = weak or mixed curves; inactive = no such curve, though single readings can be large or run the other way.
In this exercise, the only acceptable responses are active, inactive

CCCOC(=O)c1ccccc1C(=O)OCCC :: inactive
C=CC(=O)OCCCCCC(C)C :: inactive
O=P1(NCCCl)OCCCN1CCCl (stereo unspecified) :: inactive

Q: Kindly provide the recorded test outcome for the following compound: Cl[C@H]1OCCO[C@@H]1Cl
Ans: inactive

Q: Per the records of this test, what outcome belongs to C=CC(=O)OCC(CC)CCCC (stereo unspecified) ?
Ans: inactive

Q: # outcome recorded in this test, key = Cc1cc(Cl)ccc1OC(C)C(=O)O (stereo unspecified)
Ans: inactive

Q: I would be grateful if you could indicate the recorded call for C[C@H]1C(=O)O[C@@H]2CCN3CC=C(COC(=O)[C@](C)(O)[C@]1(C)O)[C@H]23 .
Ans: inactive

* * *

test: qHTS assay for identifying genotoxic compounds that show differential cytotoxicity against isogenic chicken DT40 cell lines with known DNA damage response pathways - Rev3 mutant cell line (AID 743014); conditions: chicken DT40 Rev3-/- viability, CellTiter-Glo, 40 h; series mostly up to 68.4 µM; also: nearly all actives have a fitted effect of over 55% in size
Inconclusive results are not listed. Active and inactive are the calls of the source. Calls come from the whole dose curve; as a rule, active = well fitted cell-killing curve with a large enough effect in the repeat runs; inconclusive = weak or mixed curves, or effect the other way; inactive = no such curve, though single readings can be large or run the other way.
The categories you may choose from are 1 = active, -1 = inactive

Q: Fill in: this test's call for CNCC(O)c1ccc(O)cc1 (configuration not stated) is ___
Ans: -1

Q: Check the results log: what was the call for Clc1cnc(Oc2ccc(Oc3ncc(Cl)cc3Cl)cc2)c(Cl)c1 ?
Ans: -1

Q: Hey, what did the test say about Cl[C@H]1OCCO[C@@H]1Cl ?
Ans: -1

Q: Hello, I am checking results. What call was entered for C=CC(=O)OCCCCCC(C)C ?
Ans: -1

Q: Lab log entry: CCOc1ccc(N)cc1 — outcome as called in the assay?
Ans: -1

Q: Short answer needed: outcome of this test for Cc1cc(O)ccc1Cl ?
Ans: -1

Q: Fill in: this test's call for C=CCN=C=S is ___
Ans: 1

Q: Hello, I am checking results. What call was entered for CC(C)c1cccc(C(C)C)c1O ?
Ans: -1

Q: Outcome logged for Oc1ccc(Cl)cc1 in this assay:
Ans: -1

Q: Per the records of this test, what outcome belongs to FC(F)(F)c1ccc(Cl)cc1 ?
Ans: -1

Q: Could you kindly confirm the outcome this assay logged for COc1cc(-c2ccc(N)c(OC)c2)ccc1N ?
Ans: 1
